- target: IKZF1 (dCK*-IKZF1 fusion in HEK293FT) (UniProt Q13422)
- Sequence (Q13422 whole entry, looked up, the tested form may be a part): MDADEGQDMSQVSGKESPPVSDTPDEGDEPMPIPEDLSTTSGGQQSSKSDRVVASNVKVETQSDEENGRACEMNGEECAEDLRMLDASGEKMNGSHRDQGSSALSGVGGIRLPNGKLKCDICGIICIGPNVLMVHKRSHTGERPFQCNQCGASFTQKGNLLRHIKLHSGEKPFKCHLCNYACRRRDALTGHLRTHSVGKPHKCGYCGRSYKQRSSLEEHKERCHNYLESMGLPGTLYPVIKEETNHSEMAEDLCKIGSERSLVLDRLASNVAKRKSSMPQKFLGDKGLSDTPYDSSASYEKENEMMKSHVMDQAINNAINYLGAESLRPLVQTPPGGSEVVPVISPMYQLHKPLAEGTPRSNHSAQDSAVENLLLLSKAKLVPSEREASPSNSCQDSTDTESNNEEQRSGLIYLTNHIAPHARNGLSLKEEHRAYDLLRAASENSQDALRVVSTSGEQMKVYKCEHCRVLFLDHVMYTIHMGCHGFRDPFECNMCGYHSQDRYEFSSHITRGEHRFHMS
- assay.comment: inhibition of IKZF1 HTRF signal (DMSO = 0%, pomalidomide 10 uM = 100%); higher = lower IKZF1 protein level
- measurement.parameters: compound concentration: 5 uM, overnight (~20 h)

compound: CCOC(=O)Nc1ccc2c(c1)N(C(=O)CCN1CCOCC1)c1ccccc1S2 [moracizine]
inhibition of IKZF1 HTRF signal: -24.3%
--
compound: O=c1c(O)c(-c2ccc(O)c(O)c2)oc2cc(O)cc(O)c12 [quercetin]
inhibition of IKZF1 HTRF signal: -26.2%
--
compound: NC(=O)Nc1sc(-c2ccc(F)cc2)cc1C(N)=O
inhibition of IKZF1 HTRF signal: -33.5%
--
compound: O=C2[C@]([C@]3=CC(Cl)=CC=C3OC)(F)C1=CC=C(C(F)(F)F)C=C1N2 [flindokalner]
inhibition of IKZF1 HTRF signal: -26.1%
--
compound: CN1CCC[C@@H]1CCO[C@](C)(c1ccccc1)c1ccc(Cl)cc1
inhibition of IKZF1 HTRF signal: -21.3%
--
compound: CCCCCCCCCCC(CO)CCCCCCCC (stereo not drawn) [2-Octyldodecan-1-ol]
inhibition of IKZF1 HTRF signal: -45%
--
compound: NC(=O)c1ccc[n+]([C@@H]2O[C@H](COP(=O)(O)OP(=O)(O)OC[C@H]3O[C@@H](n4cnc5c(N)ncnc54)[C@H](O)[C@@H]3O)[C@@H](O)[C@H]2O)c1
inhibition of IKZF1 HTRF signal: -23.1%
--
compound: C=C1/C(=C\C=C2/CCC[C@]3(C)[C@@H]([C@H](C)CCCC(C)(C)O)CC[C@@H]23)C[C@@H](O)C[C@@H]1O [Calcitriol]
inhibition of IKZF1 HTRF signal: -12.4%

====

- System: HEK293FT dCK*-IKZF1
- assay.comment: relative growth recovery (pomalidomide 10 uM = 100%, DMSO = 0%); higher = more growth rescue (IKZF1 fusion degradation)
- measurement.parameters: compound concentration: 5 uM; AraC concentration: 0.3 uM; overnight pretreatment + 4 days AraC
endpoint.name: relative growth recovery

molecule: NS(=O)(=O)Cc1noc2ccccc12 [zonisamide]
endpoint.name: relative growth recovery
observed: -2.26%
//
molecule: CC(C)(C)c1cc(O)c(C(C)(C)C)cc1O
endpoint.name: relative growth recovery
observed: -0.575%
//
molecule: CC(=NNc1nnc2c(n1)[nH]c1c(C)cccc12)c1ccccn1
endpoint.name: relative growth recovery
observed: -12.7%
//
molecule: COCCOC(=O)C1=C(C)NC(C)=C(C(=O)OC/C=C/c2ccccc2)C1c1cccc([N+](=O)[O-])c1 (centres undefined)
endpoint.name: relative growth recovery
observed: -0.035%
//
molecule: OC(c1cc(C(F)(F)F)nc2c(C(F)(F)F)cccc12)C1CCCCN1 (centres undefined)
endpoint.name: relative growth recovery
observed: -7.16%
//
molecule: O=[N+]([O-])c1ccc2nc(COCc3nc4ccc([N+](=O)[O-])cc4[nH]3)[nH]c2c1
endpoint.name: relative growth recovery
observed: 4.2%
//
molecule: Nc1nnc(-c2cccc(Cl)c2Cl)c(N)n1
endpoint.name: relative growth recovery
observed: -1.71%
//
molecule: CCc1nc(N)nc(N)c1-c1ccc(Cl)cc1 [Pyrimethamine]
endpoint.name: relative growth recovery
observed: -1.87%
//
molecule: Oc1c(I)cc(Cl)c2cccnc12
endpoint.name: relative growth recovery
observed: -3.28%

====

- target: IKZF1 (dCK*-IKZF1 fusion in HEK293FT) (UniProt Q13422)
- assay.comment: inhibition of IKZF1 HTRF signal (DMSO = 0%, pomalidomide 10 uM = 100%); higher = lower IKZF1 protein level
- measurement.parameters: compound concentration: 5 uM, overnight (~20 h)
We begin with a simple list: items and their reported inhibition of IKZF1 HTRF signal.
endpoint.name: inhibition of IKZF1 HTRF signal (%)

molecule: CSc1ccc2c(c1)C(N1CCN(C)CC1)Cc1ccccc1S2 (stereo unspecified)
units.of.measure: %
observed: -34.7
--
molecule: COC(=O)Nc1nc2ccc(Sc3ccccc3)cc2[nH]1
units.of.measure: %
observed: -26.6
--
molecule: COC(=O)/C=C/c1cc(O)ccc1O
units.of.measure: %
observed: -21.1
--
molecule: O=S(=O)(O)CCCS(=O)(=O)O
units.of.measure: %
observed: 17.9
--
molecule: CCCC(=O)C1CCN(c2ncnc3c2CN(C(=O)c2ccc(-c4ccccc4)cc2)CC3)CC1
units.of.measure: %
observed: -10.8
--
molecule: COC1=C(OC)C(=O)C(CCCCCCCCCCO)=C(C)C1=O
units.of.measure: %
observed: 41.8

====

We begin with a simple list: items and their reported relative growth recovery.
- Tested on: HEK293FT dCK*-IKZF1
- assay.comment: relative growth recovery (pomalidomide 10 uM = 100%, DMSO = 0%); higher = more growth rescue (IKZF1 fusion degradation)
- measurement.parameters: compound concentration: 5 uM; AraC concentration: 0.3 uM; overnight pretreatment + 4 days AraC

compound: O=C(/C=C/c1ccc(O)cc1)c1ccc(O)cc1O
target: HEK293FT dCK*-IKZF1
relative growth recovery / %: -1.02
--
compound: c1ccc2c(c1)CCC[C@H]2Nc1nc2ccccc2[nH]1
target: HEK293FT dCK*-IKZF1
relative growth recovery / %: -0.405
--
compound: COC(=O)Nc1nc2ccc(C(=O)c3ccccc3)cc2[nH]1
target: HEK293FT dCK*-IKZF1
relative growth recovery / %: -10.6
--
compound: Oc1c(CN2CCCC2)cc(COCc2ccccc2)c2cccnc12
target: HEK293FT dCK*-IKZF1
relative growth recovery / %: -13.4
--
compound: COc1cc(C(=O)NS(=O)(=O)c2ccccc2C)ccc1Cc1cn(C)c2ccc(NC(=O)OC3CCCC3)cc12
target: HEK293FT dCK*-IKZF1
relative growth recovery / %: -5.17
--
compound: CCCCCCCCCCCCCCCC[N+](C)(C)Cc1ccccc1 [Benzyldimethylhexadecylammonium chloride hydrate]
target: HEK293FT dCK*-IKZF1
relative growth recovery / %: -4.92
--
compound: CC(O)(C(=O)Nc1ccc(S(=O)(=O)c2ccccc2)cc1)C(F)(F)F (centres undefined)
target: HEK293FT dCK*-IKZF1
relative growth recovery / %: 0.77
--
compound: CN1CCN(c2ncc(-c3cc(Cl)cc(Cl)c3Cl)c(N)n2)CC1
target: HEK293FT dCK*-IKZF1
relative growth recovery / %: 2.4
--
compound: COc1ccc(CCN(C)CCc2ccc(OC)c(OC)c2)cc1OC
target: HEK293FT dCK*-IKZF1
relative growth recovery / %: 1.83

====

We begin with a simple list: items and their reported inhibition of IKZF1 HTRF signal.
- target: IKZF1 (dCK*-IKZF1 fusion in HEK293FT)
- assay.comment: inhibition of IKZF1 HTRF signal (DMSO = 0%, pomalidomide 10 uM = 100%); higher = lower IKZF1 protein level
- measurement.parameters: compound concentration: 5 uM, overnight (~20 h)
Counter-ions that a name gives are not always drawn.

compound: COc1cccc2c1C(=O)c1c(O)c3c(c(O)c1C2=O)C[C@@](O)(C(=O)CO)C[C@@H]3O[C@H]1C[C@H](N)[C@@H](O)[C@H](C)O1 [Epirubicin Hydrochloride]
units.of.measure: %
inhibition of IKZF1 HTRF signal: 52.4

compound: COc1ccc(-c2ccc3c(N4CCOC[C@@H]4C)nc(N4CCOC[C@@H]4C)nc3n2)cc1CO
units.of.measure: %
inhibition of IKZF1 HTRF signal: 50

compound: O=C1Nc2ccc(I)cc2/C1=C/c1cc(Br)c(O)c(Br)c1
units.of.measure: %
inhibition of IKZF1 HTRF signal: -34.2

compound: NS(=O)(=O)c1ccc(S(=O)(=O)Nc2cccc3c(Cl)c[nH]c23)cc1
units.of.measure: %
inhibition of IKZF1 HTRF signal: -6.45

compound: Oc1c(Cl)cc(Cl)c(Cl)c1Cc1c(O)c(Cl)cc(Cl)c1Cl [Hexachlorophene]
units.of.measure: %
inhibition of IKZF1 HTRF signal: -78.9

compound: COc1ccc(CCCOC(Cn2ccnc2)c2ccc(OC)cc2)cc1 (stereo not drawn)
units.of.measure: %
inhibition of IKZF1 HTRF signal: -18.7

compound: CCc1c2c(nc3ccc(O)cc13)-c1cc3c(c(=O)n1C2)COC(=O)[C@]3(O)CC
units.of.measure: %
inhibition of IKZF1 HTRF signal: 36.8

compound: O=C(CCCCCCC(O)=NO)Nc1ccccc1
units.of.measure: %
inhibition of IKZF1 HTRF signal: -44.5

====

- Tested on: HEK293FT dCK*-only
- assay.comment: relative growth in counter assay (no AraC = 100%, AraC + DMSO = 0%); higher = more growth rescue independent of IKZF1
- measurement.parameters: compound concentration: 5 uM; AraC concentration: 0.3 uM; overnight pretreatment + 4 days AraC
Counter-ions that a name gives are not always drawn.
We begin with a simple list: items and their reported relative growth in counter assay.

molecule: CC1(C)C(/C=C/C=C/C=C/C=C2/N(CCCCS(=O)(=O)[O-])c3ccc4ccccc4c3C2(C)C)=[N+](CCCCS(=O)(=O)[O-])c2ccc3ccccc3c21
units.of.measure: %
relative growth in counter assay: -5.7
//
molecule: CSc1ccc2c(c1)N(CCC1CCCCN1C)c1ccccc1S2 (centres undefined) [Thioridazine HCl]
units.of.measure: %
relative growth in counter assay: -2.48
//
molecule: COC1=C(OC)C(=O)C(CCCCCCCCCCO)=C(C)C1=O
units.of.measure: %
relative growth in counter assay: -5.9
//
molecule: CC(C)CCN1c2nc(Nc3cc(F)c(O)c(F)c3)ncc2N(C)C(=O)C1C (centres undefined)
units.of.measure: %
relative growth in counter assay: -32.3
